Where do these numbers come from? They come from patent US20230233569A1.

I'd appreciate it if you could supply IC50 values for the items below.
Target: KRAS Q61H (Homo sapiens, UniProt P01116+P62937, Q61H)
Sequence (P01116 1-169 isoform P01116-2 Q61H limits assumed): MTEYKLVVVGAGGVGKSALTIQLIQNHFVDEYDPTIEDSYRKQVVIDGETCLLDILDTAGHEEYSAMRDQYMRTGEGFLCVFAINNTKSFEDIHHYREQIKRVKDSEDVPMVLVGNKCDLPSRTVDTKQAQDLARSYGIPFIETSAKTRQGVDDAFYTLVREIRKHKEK
Sequence (P62937 whole entry): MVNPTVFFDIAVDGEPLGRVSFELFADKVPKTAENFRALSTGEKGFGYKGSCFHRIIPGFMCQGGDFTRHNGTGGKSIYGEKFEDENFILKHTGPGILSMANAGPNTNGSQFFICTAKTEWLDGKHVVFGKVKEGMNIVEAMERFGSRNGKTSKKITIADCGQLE
Test: Disruption of BRAF RBD interaction with Ras (FRET / MOA assay, with Cyclophilin A)
Type: biochemical
Conditions: KRAS Q61H FRET data IC50, KRAS Q61H

structure_smiles=CCn1c(-c2cccnc2[C@H](C)OC)c2c3cc(ccc31)-c1csc(n1)C[C@H](NC(=O)[C@H](C(C)C)N(C)C(=O)N1CCC[C@@H](N(C)C)CC1)C(=O)N1CCC[C@H](N1)C(=O)OCC(C)(C)C2 recorded_result="10 to 100 nM"
structure_smiles=CCn1c(-c2cccnc2[C@H](C)OC)c2c3cc(ccc31)-c1csc(n1)C[C@H](NC(=O)[C@H](C(C)C)N(C)C(=O)OC)C(=O)N1CCC[C@H](N1)C(=O)OCC(C)(C)C2 recorded_result="100 to 1000 nM"

Now for a further compound.
Lookup: Recall the recorded IC50 for CCn1c(-c2cnccc2COC)c2c3cc(ccc31)-c1cc(O)cc(c1)C[C@H](NC(=O)[C@H](C(C)C)N(C)C(=O)[C@H]1CCN(S(C)(=O)=O)C1)C(=O)N1CCC[C@H](N1)C(=O)OCC(C)(C)C2 with KRAS Q61H (Homo sapiens, UniProt P01116+P62937, Q61H) and state it.
Found: 10 to 100 nM

###

I'd appreciate it if you could supply IC50 values for the items below.
Target: KRAS Q61H (Homo sapiens, UniProt P01116+P62937, Q61H)
Test: Disruption of BRAF RBD interaction with Ras (FRET / MOA assay, with Cyclophilin A)
Type: biochemical
Details: KRAS Q61H; read-out: KRAS Q61H FRET data IC50

molecule=CCn1c(-c2cccnc2[C@H](C)OC)c2c3cc(ccc31)-c1csc(n1)C[C@H](NC(=O)[C@H](C(C)C)N(C)C(=O)N1CCCC13CCN(C)CC3)C(=O)N1CCC[C@H](N1)C(=O)OCC(C)(C)C2 recorded_result="10 to 100 nM"
molecule=CCn1c(-c2cccnc2[C@H](C)OC)c2c3cc(ccc31)-c1csc(n1)C[C@H](NC(=O)[C@H](C(C)C)N(C)C(=O)N1CCC13CCN(C)CC3)C(=O)N1CCC[C@H](N1)C(=O)OCC(C)(C)C2 recorded_result="10 to 100 nM"
molecule="CCn1c(-c2cccnc2[C@H](C)OC)c2c3cc(ccc31)-c1csc(n1)C[C@H](NC(=O)[C@H](C(C)C)N(C)C(=O)N1CC3(CC(N(C)CCOC)C3)C1)C(=O)N1CCC[C@H](N1)C(=O)OCC(C)(C)C2 (atropisomer, axis not shown)" recorded_result="100 to 1000 nM"
molecule=CCn1c(-c2cccnc2[C@H](C)OC)c2c3cc(ccc31)-c1csc(n1)C[C@H](NC(=O)[C@H](C(C)C)N(C)C(=O)N(C)[C@@H]1CCCN(C)C1)C(=O)N1CCC[C@H](N1)C(=O)OCC(C)(C)C2 recorded_result="100 to 1000 nM"
molecule="CCn1c(-c2cccnc2[C@H](C)OC)c2c3cc(ccc31)-c1csc(n1)C[C@H](NC(=O)[C@H](C(C)C)N1CCC3(CCN(S(C)(=O)=O)C3)C1=O)C(=O)N1CCC[C@H](N1)C(=O)OCC(C)(C)C2 (mixture of isomers)" recorded_result="1000 to 10000 nM"

Please go through the list and note IC50 for each molecule.
1. CCn1c(-c2cccnc2[C@H](C)OC)c2c3cc(ccc31)-c1csc(n1)C[C@H](NC(=O)[C@H](C(C)C)N(C)C(=O)N1CC[C@H](N(C)C)C1)C(=O)N1CCC[C@H](N1)C(=O)OCC(C)(C)C2
2. C=CC(=O)N1CCOC2(CCN(C(=O)N(C)[C@H](C(=O)N[C@H]3Cc4cc(CF)cc(c4)-c4ccc5c(c4)c(c(-c4cccnc4[C@H](C)OC)n5CC(F)(F)F)CC(C)(C)COC(=O)C4CCCN(N4)C3=O)C(C)C)CC2)C1 (stereo partly shown)

Found:
1: 100 to 1000 nM; 2: 10 to 100 nM

Please go through the list and note IC50 for each molecule.
1. C=CC(=O)N1CC[C@H](C(=O)N(C)[C@H](C(=O)N[C@H]2Cc3cc(O)cc(c3)-c3ccc4c(c3)c(c(-c3cccnc3N3CC(OC)C3)n4CC)CC(C)(C)COC(=O)[C@@H]3CCCN(N3)C2=O)C(C)C)C1
2. CCn1c(-c2cc(N3CCN(C)CC3)cnc2[C@H](C)OC)c2c3cc(ccc31)-c1csc(n1)C[C@H](NC(=O)[C@H](C(C)C)N(C)C(=O)[C@H]1CCNC1=O)C(=O)N1CCC[C@H](N1)C(=O)OCC(C)(C)C2 (single isomer, unassigned)
3. CCn1c(-c2cccnc2[C@H](C)OC)c2c3cc(ccc31)-c1csc(n1)C[C@H](NC(=O)N1CCCC1)C(=O)N1CCC[C@H](N1)C(=O)OCC(C)(C)C2

Found:
["1000 to 10000 nM", "100 to 1000 nM", "100 to 1000 nM"]

Please go through the list and note IC50 for each molecule.
1. C=CC(=O)N1CC2(CCN2C(=O)N(C)[C@H](C(=O)N[C@H]2Cc3nc(n(C)n3)-c3ccc4c(c3)c(c(-c3cccnc3[C@H](C)OC)n4CC)CC(C)(C)COC(=O)C3CCCN(N3)C2=O)C(C)C)C1 (stereo partly shown)
2. CCn1c(-c2cccnc2[C@H](C)OC)c2c3cc(ccc31)-c1csc(n1)C[C@H](NC(=O)[C@H](C(C)C)N(C)C(=O)N1CC[C@]3(CCN(C)C3=O)C1)C(=O)N1CCC[C@H](N1)C(=O)OCC(C)(C)C2 (single isomer, unassigned)

Found:
10 to 100 nM
100 to 1000 nM
